List of IC50 values.
Experiment: Inhibition of BMP-induced mouse C2C12 cells osteoblastic differentiation assessed as reduction in alkaline phosphatase activity
Assay type: functional, cell-based
State the answer as a number, implicitly in µM.

Some solved cases for reference:
COC1C=C(CC[C@]2(C)C(C)=CCC[C@H]2C)C(=O)O1 (stereo partly drawn) :: 20
CC1=CCC[C@@H](C)[C@]1(C)CCC1=CC(=O)OC1O (stereo partly drawn) :: 4.8

Which IC50 is reported for this compound? "C=C1C[C@@H]2C[C@@](C)(CCC3=CC(=O)O[C@@]32OC)[C@H]1C"
51
